UniProt Q99720 measurements of Ki, listed per entry.

Illustrative cases are given below, each with its answer.
> print(dat)
                      structuresmilesstring  reportedmeasurement
1  O=S(=O)(c1ccc(N2CCC(F)(F)CC2)nc1)N1CCC2(CCN(Cc3ccccc3)CC2)CC1        100 to 500 nM
2  Cc1ccc(S(=O)(=O)N2CCCC3(CCN(CCC(C)(C)C)CC3)C2)cn1             < 100 nM
3  CN(Cc1ccccc1)C1CCN(S(=O)(=O)c2ccc(N3CCCC3=O)nc2)CC1        100 to 500 nM
4  CCc1ccc(S(=O)(=O)N2CCCC3(CCN(CCC(C)(C)C)CC3)C2)cn1             < 100 nM
5  C[C@@H]1CN(Cc2ccccc2)C[C@H]1NS(=O)(=O)c1ccc(N2CCOCC2)nc1             < 100 nM
6  O=S(=O)(NC1CC2(CCN(Cc3ccccc3)CC2)C1)c1ccc(N2CCOCC2)nc1            > 1000 nM

# evaluate next
# get_value(readout='Ki', item= `CC(C)(C)CCN1CCCC2(CCN(S(=O)(=O)c3ccc(N4CCOC4=O)cn3)CC2)C1` )
< 100 nM

* * *

- targetDesc: human σ1 receptor (Homo sapiens, UniProt Q99720)
- Sequence (Q99720 whole entry): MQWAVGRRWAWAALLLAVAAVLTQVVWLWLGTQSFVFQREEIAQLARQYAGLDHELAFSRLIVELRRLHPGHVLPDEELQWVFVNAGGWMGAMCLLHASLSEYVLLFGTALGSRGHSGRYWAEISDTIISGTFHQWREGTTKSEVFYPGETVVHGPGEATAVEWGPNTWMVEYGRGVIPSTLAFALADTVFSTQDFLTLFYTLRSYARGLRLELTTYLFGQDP
Recorded Ki by entry

Illustrative cases are given below, each with its answer.
> print(dat)
                      structuresmilesstring  measurename  reportedmeasurement
1  CC(C)(C)CCN1CCC2(CC1)CCN(S(=O)(=O)c1ccc(N3CCOC3=O)nc1)CC2           Ki        0.1 to 0.5 µM
2  O=S(=O)(N[C@H]1CCN(Cc2ccccc2)C1)c1ccc(N2CCOCC2)nc1           Ki             < 0.1 µM
3  CN(Cc1ccccc1)[C@H]1CC[C@H](NS(=O)(=O)c2ccc(N3CCC4(CCOC4)CC3)nc2)CC1           Ki             < 0.1 µM
4  O=C1OCCN1c1ccc(S(=O)(=O)N2CCC3(CCN(CC4CCOCC4)CC3)C2)cn1           Ki             < 0.1 µM
5  O=S(=O)(c1ccc(N2CCC(F)(F)CC2)nc1)N1CCCC2(CCN(Cc3ccccc3)CC2)C1           Ki             < 0.1 µM
6  CN([C@H]1CCN(Cc2ccccc2)C1)S(=O)(=O)c1ccc(N2CCOCC2)nc1           Ki             < 0.1 µM
7  O=S(=O)(NC1CCN(Cc2ccccc2)CC1)c1ccc(N2CCOCC2)nc1           Ki             < 0.1 µM

# evaluate next
Requested read-out Ki, target or system human σ1 receptor (Homo sapiens, UniProt Q99720), entry `CC(C)(C)CCN1CCC2(CCCN(S(=O)(=O)c3ccc(N4CCCCC4=O)nc3)C2)CC1`
0.1 to 0.5 µM

* * *

Recorded Ki by entry
- targetDesc: human σ2/TMEM97 receptor (Homo sapiens, UniProt Q5BJF2)
- Sequence (Q5BJF2 whole entry): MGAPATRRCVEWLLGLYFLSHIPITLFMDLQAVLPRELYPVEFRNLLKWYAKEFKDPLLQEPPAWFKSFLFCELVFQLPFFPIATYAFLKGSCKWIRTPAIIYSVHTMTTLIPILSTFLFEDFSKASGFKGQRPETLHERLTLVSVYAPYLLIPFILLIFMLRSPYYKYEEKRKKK
- testDetails: Binding assay to human σ2/TMEM97 receptor
- condition: transfected HEK-293 membranes, 10 nM [3H]-DTG, 25° C. 120 minutes; + may also stand for 1-50% inhibition at 1 or 10 μM; read-out: Binding σ-2 Ki

> print(dat)
                                   compound  measurename  reportedmeasurement
1  CN(Cc1ccccc1F)C1CCN(S(=O)(=O)c2ccc(N3CCC(F)(F)CC3)nc2)CC1 [Example 172]           Ki             < 0.1 µM

# get_value(readout='Ki', item= CC(C)(C)CCN1CCC2(CC1)CCN(S(=O)(=O)c1ccc(N3CCC4(CCOC4)CC3)nc1)CC2 [Example 68] )
< 0.1 µM

Same read-out for CN(Cc1ccccc1)C1CCN(S(=O)(=O)c2ccc(N3CCC(F)(F)CC3)nc2)CC1 [Example 86] ?
< 0.1 µM

Same read-out for CN(Cc1cccc(F)c1)[C@H]1CC[C@H](NS(=O)(=O)c2ccc(N3CCOCC3)nc2)CC1 [Example 57] ?
< 0.1 µM

Same read-out for CC(C)N([C@@H]1CCN(Cc2ccc(C#N)cc2)C1)S(=O)(=O)c1ccc(N2CCOCC2)nc1 [Example 49] ?
> 1 µM

Same read-out for CC(C)(C)CCN1CCC2(CCCN(S(=O)(=O)c3ccc(N4CCC(F)(F)CC4)nc3)C2)CC1 [Example 96] ?
< 0.1 µM

Same read-out for O=S(=O)(N[C@H]1CCN(Cc2ccccc2)C1)c1cnc(N2CCOCC2)c(F)c1 [Example 25] ?
> 1 µM

Same read-out for CN(Cc1cc(F)ccc1F)[C@H]1CC[C@H](NS(=O)(=O)c2ccc(N3CCC4(CCOC4)CC3)nc2)CC1 [Example 179] ?
< 0.1 µM

Same read-out for O=S(=O)(c1ccc(N2CCC(F)(F)CC2)nc1)N1CCC(NCc2ccccc2)CC1 [Example 170] ?
< 0.1 µM

Same read-out for O=S(=O)(N[C@H]1CC[C@H](NCc2ccccc2F)CC1)c1ccc(N2CCOCC2)nc1 [Example 53] ?
0.1 to 0.5 µM

Same read-out for CN(CCC(C)(C)C)C1CCN(S(=O)(=O)c2ccc(N3CCC(F)(F)CC3)nc2)CC1 [Example 168] ?
< 0.1 µM

Same read-out for CCC(=O)N(C)c1ccc(S(=O)(=O)N2CCC3(CCN(CCC(C)(C)C)CC3)CC2)cn1 [Example 105] ?
< 0.1 µM

Same read-out for CN(Cc1ccccc1)[C@H]1CC[C@H](NS(=O)(=O)c2ccc(N3CCOCC3)nc2)CC1 [Example 18] ?
< 0.1 µM

Same read-out for CC(C)OCCN1CCC2(CC1)CCN(S(=O)(=O)c1ccc(C(F)(F)F)nc1)CC2 [Example 90] ?
< 0.1 µM

Same read-out for O=S(=O)(N[C@@H]1CCN(Cc2ccccc2)C1)c1ccc(N2C[C@@H]3C[C@H]2CO3)nc1 [Example 23] ?
> 1 µM

Same read-out for N#Cc1cccc(CN2CCC(NS(=O)(=O)c3ccc(N4CCOCC4)nc3)CC2)c1 [Example 9] ?
> 1 µM

* * *

- targetDesc: human σ1 receptor (Homo sapiens, UniProt Q99720)
- Construct: expressed in transfected cells; host or cells: HEK-293
- testDetails: Human σ1 receptor radioligand assay
- condition: transfected HEK-293 membranes, 5 nM [3H](+)-pentazocine, 37° C. 120 minutes; + may also stand for 1-50% inhibition at 1 or 10 μM; read-out: Binding σ-1 Ki
measureName: Ki

> print(dat)
                                   compound                                targetdesc  measurename  reportedmeasurement
1  CC(C)(C)CCN1CCC2(CC1)CCN(S(=O)(=O)c1ccc(C3CCOCC3)nc1)CC2 [Example 117]  human σ1 receptor (Homo sapiens, UniProt Q99720)           Ki        100 to 500 nM
2  CC(C)(C)CCN1CCC2(CC1)CCN(S(=O)(=O)c1ccc(N3CCOCC3)nc1)CC2 [Example 29]  human σ1 receptor (Homo sapiens, UniProt Q99720)           Ki        100 to 500 nM
3  O=C1OCCN1c1ccc(S(=O)(=O)N2CCC3(CCCN(Cc4ccccc4)C3)CC2)cn1 [Example 147]  human σ1 receptor (Homo sapiens, UniProt Q99720)           Ki       500 to 1000 nM
4  O=S(=O)(N[C@H]1CC[C@H](NCc2ccccc2)CC1)c1ccc(N2CCOCC2)nc1 [Example 51]  human σ1 receptor (Homo sapiens, UniProt Q99720)           Ki            > 1000 nM
5  O=C1OCCN1c1ccc(S(=O)(=O)N2CCCC3(CCN(CC4CCOCC4)CC3)C2)cn1 [Example 158]  human σ1 receptor (Homo sapiens, UniProt Q99720)           Ki             < 100 nM
6  N#Cc1ccc(CN2CCC3(CC2)CCN(S(=O)(=O)c2ccc(N4CCOC4=O)nc2)C3)cc1F [Example 164]  human σ1 receptor (Homo sapiens, UniProt Q99720)           Ki        100 to 500 nM

Requested read-out Ki, target or system human σ1 receptor (Homo sapiens, UniProt Q99720), entry CC(C)(C)CCN1CCC2(CC1)CCN(S(=O)(=O)c1ccc(N3CCCC3=O)nc1)C2 [Example 139]
< 100 nM

Same read-out for O=C1OCCN1c1ccc(S(=O)(=O)N2CCCC3(CCN(Cc4ccccc4F)CC3)C2)cn1 [Example 159] ?
< 100 nM

Same read-out for CC(C)(C)CCN1CCC2(CCCN(S(=O)(=O)c3ccc(N4CCC5(CCCO5)CC4)nc3)C2)CC1 [Example 98] ?
< 100 nM

Same read-out for N#Cc1cccc(CN2CC[C@H](NS(=O)(=O)c3ccc(N4CCOCC4)nc3)C2)c1 [Example 42] ?
500 to 1000 nM

Same read-out for CC(C)CCN1CCC2(CC1)CCN(S(=O)(=O)c1ccc(C(F)(F)F)nc1)CC2 [Example 93] ?
< 100 nM
